# TEST TARGET: UNC-75 (Caenorhabditis elegans, UniProt G5EE68 1-514)
# ASSAY TEXT: EMSA; EMSA as described previously (ref 55); buffer, salt, pH and temperature not given
# EXPERIMENTAL CONTEXT: protein: recombinant; tags: FLAG; label: 32P
PROPERTY MEASURED: binding result

BINDER: Probe 2-1-1b (ssRNA) RNA: GGGAGAUUAGCACGCAAAAAAAUUCUACUGUCCCGUUACUUUUUGUUGUGUUGU
RESULT: binds

BINDER: Probe 2-1-1c (ssRNA) RNA: GGGAGAUUAGCACGCACCCGCCUUAUAAUAUCCCGUUACUUUUUGUUGUGUUGU
RESULT: binds

BINDER: Probe 2-1-1a (ssRNA) RNA: GGGAGAUUAAAAAAAACCCGCCUUCUACUGUCCCGUUACUUUUUGUUGUGUUGU
RESULT: binds

Hello, the source for this data is paper PMC3585155, in case you need it.
